Test: Stability of the analytes in rat plasma (method validation)
Assay type: in vitro ADME
Conditions: rat plasma, −80 °C one month, n = 3; low QC (P, C 60; E, EG 3; PG, CG 30 ng/mL)
Kindly supply the reported Long Term Stability, Accuracy values for the records listed here.
Could you give me the number in %? Just the number is fine.

Data point: Cc1cc(O)c2c(c1)C(=O)c1cc(O)cc(O[C@@H]3O[C@H](CO)[C@@H](O)[C@H](O)[C@H]3O)c1C2=O [EG, emodin-8-O-β-D-glucoside] ; Long Term Stability, Accuracy = 102.9

# compound COc1cc(O[C@@H]2O[C@H](CO)[C@@H](O)[C@H](O)[C@H]2O)c2c(c1)C(=O)c1cc(C)cc(O)c1C2=O [PG, physcion-8-O-β-D-glucoside] ; its Long Term Stability, Accuracy = 97.7

Summary for this compound, Cc1cc(O)c2c(c1)C(=O)c1cccc(O)c1C2=O [C, chrysophanol] : Long Term Stability, Accuracy is 104.3

Reported Long Term Stability, Accuracy of COc1cc(O)c2c(c1)C(=O)c1cc(C)cc(O)c1C2=O [P, physcion] : 107.3

In plain terms, Cc1cc(O)c2c(c1)C(=O)c1cccc(O[C@@H]3O[C@H](CO)[C@@H](O)[C@H](O)[C@H]3O)c1C2=O [CG, chrysophanol-8-O-β-D-glucoside] has a documented Long Term Stability, Accuracy of 97.5

Reported Long Term Stability, Accuracy ( Cc1cc(O)c2c(c1)C(=O)c1cc(O)cc(O)c1C2=O [E, emodin] ) = 106.8
